Tested on: Plasmodium falciparum
Experiment: Inhibition of alanyl aminopeptidase activity in Plasmodium falciparum 3D7 at 0.1 uM using Ala-AMC as a substrate by spectrophotometer
VALUE_TYPE: inhibition at 0.1 µM (%)
Record the value in %, omitting the unit from your answer.

inhibition at 0.1 µM in this record for CC(CCNC(=O)C(N)Cc1ccccc1)P(=O)(O)O (stereo not drawn) : 0

Record NC(CCc1ccccc1)P(=O)(O)O (racemic) , field inhibition at 0.1 µM: 15

In plain terms, NC(CCCC1CCCCC1)P(=O)(O)O (racemic) has a documented inhibition at 0.1 µM of 15

Value of inhibition at 0.1 µM reported for the molecule NC(CCCCc1ccccc1)P(=O)(O)O (racemic) is 28

Recorded inhibition at 0.1 µM (molecule "CC(C)C[C@H](N)P(=O)(O)O" ): 0

Documented inhibition at 0.1 µM of "CC(C)C[C@H](NC(=O)[C@@H](O)[C@H](N)Cc1ccccc1)C(=O)O" : 29

Notebook: COc1ccc(C(N)P(=O)(O)O)cc1OC (racemic) , inhibition at 0.1 µM read as 0

NC(CCC1CCCCC1)P(=O)(O)O (racemic) yielded inhibition at 0.1 µM of 13

Lab note: measured inhibition at 0.1 µM of "N[C@@H](C1CCCCC1)P(=O)(O)O" was 2

Record summary for NC(CCc1ccccc1)P(=O)(O)Oc1ccccc1 (racemic) : reported inhibition at 0.1 µM = 12

Value of inhibition at 0.1 µM reported for the molecule NC(CC1CCCCC1)P(=O)(O)O (racemic) is 0

response.value for COc1ccc(C(N)P(=O)(O)O)cc1 (racemic) (field: inhibition at 0.1 µM) = 2

# inhibition at 0.1 µM (molecule: COc1ccc(C(N)P(=O)(O)O)cc1O (racemic) ) is 0

Recorded values, source ChEMBL document CHEMBL1671856.
